Reference source: PubChem BioAssay AID328

Listed below: T/C values for each entry.
System: BDF1 mice, P388 leukemia ip, median survival T/C
Experiment: NCI In Vivo Anticancer Drug Screen. Data for tumor model P388 Leukemia (intraperitoneal) in B6D2F1 (BDF1) mice
Settings: endpoint: median survival time; dose: 25.0 mg/kg/injection; schedule: Q01DX009 (ip); vehicle: saline with Tween-80; higher = longer survival
Toxic doses and inconclusive results are not listed.

smi	target-of-assay	T/C
CCOC(=O)/C=C(\C)C(=O)c1ccc(OC)c(OC)c1OCc1ccccc1	BDF1 mice, P388 leukemia ip, median survival T/C	100 % of control
c1ccc(-c2nc3ncccn3n2)cc1	BDF1 mice, P388 leukemia ip, median survival T/C	97 % of control
C[CH2][Sn]([c]1ccccc1)([c]1ccccc1)[c]1ccccc1	BDF1 mice, P388 leukemia ip, median survival T/C	109 % of control
C[n+]1c(/C=N/NC(N)=S)ccc2ccccc21	BDF1 mice, P388 leukemia ip, median survival T/C	97 % of control
Clc1[nH]nc2ccccc12	BDF1 mice, P388 leukemia ip, median survival T/C	87 % of control
CC(=O)CC(OC(=O)c1cc([N+](=O)[O-])cc([N+](=O)[O-])c1)(C(F)(F)F)C(F)(F)F	BDF1 mice, P388 leukemia ip, median survival T/C	118 % of control
